This collection of values is drawn from the supplement of paper PMC8728848.

Target: Fuc(a1-2)Gal(b1-3)GlcNAc(b1-2)Man(a1-3)[Fuc(a1-2)Gal(b1-3)GlcNAc(b1-2)Man(a1-6)]Man(b1-4)GlcNAc(b1-4)[Fuc(a1-6)]GlcNAc
Assay Explanation: glycan array binding signal (z-score within array); higher = stronger binding
Cond: glycan notation: IUPAC condensed, linker removed
The entries come from a sample that favours the strongest signals as a whole.
So I've got a bunch of binders here, and I need their glycan array binding signal (z-score) values.
Numbers only.

binder="CML1 (Coprinopsis cinerea) (protein) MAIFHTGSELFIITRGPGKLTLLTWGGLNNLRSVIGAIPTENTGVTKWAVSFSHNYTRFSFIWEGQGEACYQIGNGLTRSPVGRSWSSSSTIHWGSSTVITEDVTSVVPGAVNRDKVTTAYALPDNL" recorded_value=1.34
binder="ArathEULS3 (Arabidopsis thaliana), Q945P1 (protein) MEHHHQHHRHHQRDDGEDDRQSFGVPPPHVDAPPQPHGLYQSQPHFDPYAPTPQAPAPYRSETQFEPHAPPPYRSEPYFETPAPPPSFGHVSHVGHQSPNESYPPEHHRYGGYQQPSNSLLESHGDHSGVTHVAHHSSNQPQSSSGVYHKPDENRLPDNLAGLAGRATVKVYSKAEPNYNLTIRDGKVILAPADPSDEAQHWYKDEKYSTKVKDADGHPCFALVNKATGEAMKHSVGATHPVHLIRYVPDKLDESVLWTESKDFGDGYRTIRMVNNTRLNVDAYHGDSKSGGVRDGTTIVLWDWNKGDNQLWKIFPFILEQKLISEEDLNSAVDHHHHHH" recorded_value=0.265

Using the record for SP15308A-bot-339-19-339 (Bacteroides ovatus) (protein) ACNNEWEDEQYEQYISFKSPIPAGGEGVTDIYVRYKEDGKVTYRLPIVVSGSTTNTLDREVHIAVDKDTLETLNIERFSIHRPGLWYTALEEDKYDFPKTVHISAGSSVEQLNIDFNLQGIDMLEKWVLPLTIVDDPSYNYKSHPRKNYAKALLRVIPFNNYSGSYTSSAMKVYTYINGKPDTNARTANKRTGYVINDNTVFFYAGLISEDLDKEVREKYKINVHFNEDGTLHMEQGDPTNKMKFELIGTPTYSKTSVMDATRPYLERRYVQIMFEYDFEDFSYGGNGVDVIPIKYKVEGSMTLQRNINTQIPDEDQQIEW , state its measured glycan array binding signal (z-score).
0.285
